Data origin, for the record: ChEMBL document CHEMBL1145498

molecular target: UniProtKB O43293
Sequence (O43293 whole entry, looked up): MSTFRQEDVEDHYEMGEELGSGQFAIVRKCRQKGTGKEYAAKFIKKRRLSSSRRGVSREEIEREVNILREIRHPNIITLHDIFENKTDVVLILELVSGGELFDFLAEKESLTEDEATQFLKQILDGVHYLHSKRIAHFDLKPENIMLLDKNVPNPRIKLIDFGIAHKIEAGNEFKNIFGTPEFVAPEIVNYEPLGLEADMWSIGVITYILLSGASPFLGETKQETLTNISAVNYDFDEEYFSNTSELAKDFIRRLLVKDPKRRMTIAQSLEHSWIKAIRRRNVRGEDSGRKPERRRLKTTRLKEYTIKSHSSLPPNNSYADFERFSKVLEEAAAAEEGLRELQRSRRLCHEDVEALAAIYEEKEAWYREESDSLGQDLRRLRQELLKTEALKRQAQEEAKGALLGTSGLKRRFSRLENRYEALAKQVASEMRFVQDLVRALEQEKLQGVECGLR
Use ΔTm to assign classes; range list: group 1: < 0.4 °C; group 2: ≥ 0.4 °C and < 2 °C; group 3: ≥ 2 °C

Determine which band this compound sits in: CN(C)C[C@@H]1CCn2cc(c3ccccc32)C2=C(C(=O)NC2=O)c2cn(c3ccccc23)CCO1 group 2

Determine which band this compound sits in: O=C1Nc2ccccc2/C1=C1/Nc2ccccc2/C1=N\O group 3

Determine which band this compound sits in: O=C1Nc2ccc(I)cc2/C1=C\c1cc(Br)c(O)c(Br)c1 group 3

Determine which band this compound sits in: CC(C)c1nn(-c2c(Cl)cccc2Cl)c2nc(Cc3ccc(OCCO)cc3)[nH]c(=O)c12 group 3

Determine which band this compound sits in: O=[N+]([O-])c1ccc(-c2nc(-c3ccc(F)cc3)c(-c3ccncc3)[nH]2)cc1 group 1

Determine which band this compound sits in: CCOc1cc(/C=C(\C#N)C(N)=O)cc(CSc2ccccc2)c1O group 1

Determine which band this compound sits in: O=C(Nc1cccc(Nc2nccc(Nc3cccc(C(F)(F)F)c3)n2)c1)C1CC1 group 3

Determine which band this compound sits in: COc1ccc(Cl)cc1NC(=O)Nc1cc(C)nc2ccccc12 group 3

Determine which band this compound sits in: NS(=O)(=O)c1ccc(Nc2nc(OCC3CCCCC3)c3nc[nH]c3n2)cc1 group 2

Determine which band this compound sits in: O=c1c(-c2ccc(O)cc2)coc2cc(O)cc(O)c12 group 2

Determine which band this compound sits in: O=C1C(Cl)=C(N2C(=O)CCC2=O)C(=O)c2ccccc21 group 1

Determine which band this compound sits in: CN[C@@H]1CC2O[C@@](C)([C@@H]1OC)n1c3ccccc3c3c4c(c5c6ccccc6n2c5c31)C(=O)NC4 group 3

Determine which band this compound sits in: O=C1NC(=O)C(c2c[nH]c3ccccc23)=C1c1c[nH]c2ccccc12 group 1

Determine which band this compound sits in: NCCNS(=O)(=O)c1cccc2c(Cl)cccc12 group 3

Determine which band this compound sits in: Nc1n[nH]c2nnc(-c3c(-c4ccccc4)nn4ccccc34)cc12 group 3

Determine which band this compound sits in: COc1cc(C[C@H]2C(=O)OC[C@@H]2Cc2ccc(OC)c(OC)c2)ccc1O group 1

Determine which band this compound sits in: N#C/C(=C\c1ccc(O)c(O)c1)C(=O)NCc1ccccc1 group 2

Determine which band this compound sits in: O=C1NC(=O)C(c2cn(CCCn3ccnc3)c3ccccc23)=C1Nc1ccccc1 group 2

Determine which band this compound sits in: O=C(Nc1cccc(Nc2cc(Nc3cccc(C(F)(F)F)c3)ncn2)c1)C1CC1 group 3

Determine which band this compound sits in: Nc1nc(Nc2ccc(S(N)(=O)=O)cc2)nn1C(=S)Nc1c(F)cccc1F group 3

Determine which band this compound sits in: CC(=O)O/N=C1/C(=C2/C(=O)Nc3cc(Br)ccc32)Nc2ccccc21 group 1

Determine which band this compound sits in: C[C@@H]1C[C@H]2O[C@@H]2/C=C\C=C\C(=O)Cc2c(Cl)c(O)cc(O)c2C(=O)O1 group 1

Determine which band this compound sits in: COc1cc(/C=C/C(=O)CC(=O)/C=C/c2ccc(O)c(OC)c2)ccc1O group 2

Determine which band this compound sits in: CC(C)(C)c1cc(C=C2C(=O)C=CC2=O)cc(C(C)(C)C)c1O group 1

Determine which band this compound sits in: CC(C)n1cnc2c(NCc3ccccc3)nc(NCCCO)nc21 group 2

Determine which band this compound sits in: O=c1c(O)c(-c2ccc(O)c(O)c2)oc2cc(O)cc(O)c12 group 3

Determine which band this compound sits in: CC(C)c1cc(/C=C(\C#N)C(=O)NCCCc2ccccc2)cc(C(C)C)c1O group 2

Determine which band this compound sits in: O=C(O)/C=C/c1cc(CO)ccc1CO group 2

Determine which band this compound sits in: Cn1cc(/C=C2/C(=O)Nc3ccc(S(N)(=O)=O)cc32)c2ccccc21 group 1

Determine which band this compound sits in: O=C(O)c1cc(NCc2cc(O)ccc2O)ccc1O group 1

Determine which band this compound sits in: COc1cc2ncnc(Nc3cccc(Br)c3)c2cc1OC group 2

Determine which band this compound sits in: Cc1ccc(NC(=O)c2cccc(N(C)C)c2)cc1NC(=O)c1ccc(O)cc1 group 1

Determine which band this compound sits in: Cc1nc(Nc2ncc(C(=O)Nc3c(C)cccc3Cl)s2)cc(N2CCN(CCO)CC2)n1 group 1

Determine which band this compound sits in: O=C1Nc2cc(Br)ccc2/C1=C1/Nc2ccccc2/C1=N\O group 3

Determine which band this compound sits in: C[C@@H](N)[C@H]1CC[C@H](C(=O)Nc2ccncc2)CC1 group 2

Determine which band this compound sits in: COc1ccc(CNc2nc(N(CCO)CCO)nc3c2ncn3C(C)C)cc1 group 2
